target_or_test_system: Arginase-2, mitochondrial (Homo sapiens) (UniProt P78540)
Sequence (P78540 whole entry): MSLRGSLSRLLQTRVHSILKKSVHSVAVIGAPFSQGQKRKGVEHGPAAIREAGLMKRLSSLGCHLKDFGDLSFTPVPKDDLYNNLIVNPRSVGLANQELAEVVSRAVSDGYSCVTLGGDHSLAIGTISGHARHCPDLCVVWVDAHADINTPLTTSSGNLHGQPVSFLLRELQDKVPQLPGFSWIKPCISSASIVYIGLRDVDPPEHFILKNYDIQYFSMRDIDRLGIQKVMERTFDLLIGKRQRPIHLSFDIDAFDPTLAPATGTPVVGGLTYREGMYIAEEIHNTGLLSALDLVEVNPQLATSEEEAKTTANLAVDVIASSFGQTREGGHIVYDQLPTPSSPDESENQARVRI
test_method_notes: in vitro enzyme assay to detect the production of urea directly proportional to the activity of Arginase II; note: in the data most compounds retested in dose-response had high values
Type: functional
Design: scale not given: direction of the effect not stated beside the values
test_settings: 33.3 µM
experimental_readout: Percent Effect (%)
Give bare numbers, in %.

| molecule | reading_unit | value_measured |
| --- | --- | --- |
| Cc1n[nH]c(C2CN(C(=O)c3cc(Cl)c[nH]3)CCO2)n1 (configuration not stated) | % | -3.55 |
| Cc1nc2n(n1)CC(NCc1cc(Cl)c3c(c1)OCCCO3)CC2 (configuration not stated) | % | -1.44 |
| CCc1nc(CN2CCCN(C(=O)c3cnc[nH]3)CC2)cs1 | % | -1.66 |
| CN(C)C(=O)c1ccc2c(c1)N(C)C(CC(=O)NC(C)(C)CO)CO2 (configuration not stated) | % | -2.21 |
| O=C(c1ccco1)N1CCC2(CCOC2)C1 (configuration not stated) | % | 3.35 |

I'm hoping you can list Percent Effect for every molecule here, please.
1. Cn1nnc2c1C(COCc1ccccn1)CN(C(=O)c1cccs1)C2 (configuration not stated)
2. CN(C)S(=O)(=O)N1CCC(Oc2cnccn2)CC1
3. O=C(NCCCN1CCCC1=O)Nc1ccc(Br)cc1Cl
4. COCCCN1CCCN(C(C)C(=O)Nc2cccc(I)c2)CC1 (configuration not stated)
5. CCOC1CCCN(C(=O)c2cnc3c(cnn3C3CCCC3)c2)C1 (configuration not stated)
6. O=C(CCNc1ncccn1)NCCOc1ccc2c(c1)CCC2
7. Cc1ccccc1CS(=O)(=O)NCCCN1CCCCC1

[A]
1. -7.19
2. -1.94
3. -3.7
4. -5
5. -2.66
6. -2.52
7. 2.6

----------
target_or_test_system: Sialic acid-binding Ig-like lectin 9 (Homo sapiens) (UniProt Q9Y336)
Sequence (Q9Y336 whole entry): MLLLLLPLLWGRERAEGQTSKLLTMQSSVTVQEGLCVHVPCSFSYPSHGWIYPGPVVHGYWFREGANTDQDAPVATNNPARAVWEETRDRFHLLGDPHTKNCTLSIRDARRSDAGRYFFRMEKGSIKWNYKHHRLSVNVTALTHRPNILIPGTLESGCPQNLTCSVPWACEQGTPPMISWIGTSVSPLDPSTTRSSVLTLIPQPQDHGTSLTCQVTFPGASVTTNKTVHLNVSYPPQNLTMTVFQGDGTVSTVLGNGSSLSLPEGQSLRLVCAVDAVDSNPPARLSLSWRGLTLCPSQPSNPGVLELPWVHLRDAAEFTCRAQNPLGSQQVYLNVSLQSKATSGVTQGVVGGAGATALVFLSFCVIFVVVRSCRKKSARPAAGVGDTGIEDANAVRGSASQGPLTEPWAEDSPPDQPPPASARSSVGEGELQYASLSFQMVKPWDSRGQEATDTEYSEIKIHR
test_method_notes: Hs-Siglec9 ALPHAscreen SOP 20170721
Parameters: scale not given: direction of the effect not stated beside the values
test_settings: 10 µM
experimental_readout: Percent Effect (%)
Numbers only, in %.

| compound | reading_unit | Percent Effect |
| --- | --- | --- |
| COc1ccc(CN2CCn3c(CNS(C)(=O)=O)nnc3C2)cc1 | % | -5.71 |
| O=C(Cc1ccc(F)cc1)NCCNCC1CNc2ccnn2C1 (stereo unspecified) | % | 24.8 |
| O=C(NCCn1ccnc1)c1cccc(F)c1 | % | -8.53 |
| O=C(c1ccnnc1)N1C[C@@H]2CC[C@H](Oc3cccc(F)c3)[C@@H]2C1 | % | -2.19 |
| CN(C)CCOCC1CN(C(=O)[C@H]2CCCO2)Cc2ccnn2C1 (stereo partly specified) | % | 5.06 |
| COCC1CN(Cc2ccncc2)Cc2nnn(CC3CC3)c21 (stereo unspecified) | % | 2.54 |
| CSc1ncc(C(=O)N2C[C@H]3CC[C@@H]2CN(Cc2ccccc2)C3)cn1 | % | -2.06 |
| CCN(CC)C(=O)c1ccn(COc2cc(C)cc(C)c2)n1 | % | 1.4 |

I'm hoping you can list Percent Effect for every compound here, please.
1. O=C(c1cnccn1)N1CCN(Cc2csc(-c3ccccc3)n2)CC1
2. Cc1ccc(CNC(=O)CCSCc2csc(C)n2)cn1
3. O=C(CN1CCCC1Cn1cncn1)NCCc1c(F)cccc1F (stereo unspecified)

[A]
1: -0.413; 2: -3.29; 3: 10.3

----------
target_or_test_system: Protein translocase subunit SecA (Escherichia coli (strain K12))
test_method_notes: Assay to Identify E. coli SecA ATPase Inhibitors
Format: functional
Design: scale not given: direction of the effect not stated beside the values
test_settings: 30 µM
Entries with a potency or affinity are not part of this list.
Please go through the items and note down their Percent Effect.
Numbers only, in %.

The cases that follow already have their Percent Effect on record.
| compound | target_or_test_system | value_measured |
| --- | --- | --- |
| Cn1ccnc1CN1CCCN(C(=O)c2ccc3c(c2)COC3)CC1 | Protein translocase subunit SecA (Escherichia coli (strain K12)) | -5.22 |
| CCOCc1cccc(S(=O)(=O)N2CCSCC2)c1 | Protein translocase subunit SecA (Escherichia coli (strain K12)) | -3.9 |
| c1cnn(Cc2cn3c(n2)CN(Cc2nccs2)CC3)c1 | Protein translocase subunit SecA (Escherichia coli (strain K12)) | -2.43 |
| CCC(CC)NC(=O)Cn1nc(C)nc1-c1ccccc1 | Protein translocase subunit SecA (Escherichia coli (strain K12)) | -4.52 |
| Cn1ccnc1CN1CCN(CC(O)c2ccco2)CC1 (stereo unspecified) | Protein translocase subunit SecA (Escherichia coli (strain K12)) | -7.57 |

--- query ---
[Q] Need Percent Effect of `CCS(=O)(=O)N1CC[C@]2(C[C@@H](OCC3CC3)CO2)C1` , thanks.
[A] -5.7

----------
target_or_test_system: Sialic acid-binding Ig-like lectin 9 (Homo sapiens)
test_method_notes: Hs-Siglec9 ALPHAscreen SOP 20170721
Parameters: scale not given: direction of the effect not stated beside the values
test_settings: 10 µM
experimental_readout: Percent Effect (%)
Give bare numbers, in %.

The cases that follow already have their Percent Effect on record.
| compound | Percent Effect, % |
| --- | --- |
| COC1CCN(C(=O)Cc2csc(-c3ncccn3)n2)CC1 | 6.25 |
| Cc1noc(C(C)C)c1C(=O)NS(=O)(=O)c1ccc(Cl)cc1 | 1.74 |
| CCCc1cc(C(=O)N(C)Cc2cnc3ccccc3n2)n(C)n1 | 6.76 |
| CC(=O)N(Cc1ncc(C)o1)C1CCN(CCNC2CCCCC2)C1 (stereo unspecified) | -9.81 |
| CCN(C)c1ncnc2c1CCN(Cc1csc(C)n1)CC2 | 2.61 |

--- query ---
[Q] Need Percent Effect of `O=C(NCCNc1ccc(C(F)(F)F)cn1)c1cncc(Br)c1` , thanks.
[A] -7

----------
target_or_test_system: Arginase-2, mitochondrial (Homo sapiens) (UniProt P78540)
test_method_notes: in vitro enzyme assay to detect the production of urea directly proportional to the activity of Arginase II; note: in the data most compounds retested in dose-response had high values
Assay type: functional
Design: scale not given: direction of the effect not stated beside the values
test_settings: 33.3 µM
Please go through the items and note down their Percent Effect.
Give bare numbers, in %.

| compound | value_measured |
| --- | --- |
| Cc1cc(C)c(CNC(=O)C2CCCN(c3cnccn3)C2)c(=O)[nH]1 (stereo unspecified) | -1.53 |
| O=C(c1ncccn1)N1C[C@H]2CCC[C@@]2(COCc2ccncc2)C1 | 4.52 |
| Cc1cc(NC(=O)C(c2cccc(F)c2)N2CCOCC2)ccn1 (stereo unspecified) | -9.47 |
| Cc1cc(C(=O)N2CCC(c3nccn3Cc3ccncc3)CC2)no1 | 5.46 |
| O=C(N1CCCC1)N1CCO[C@H]2[C@@H](Oc3ccccn3)CC[C@@H]21 | 4.43 |
| CCN(CC(=O)NC(C)C)S(=O)(=O)N1CCC(C)C1 (stereo unspecified) | 1.24 |

I'm hoping you can list Percent Effect for every compound here, please.
1. CCOCCCC(=O)NCc1cn2cc(Br)ccc2n1
2. N#Cc1ccnc(N2CCN(CC(O)c3cccc(F)c3)CC2)c1 (stereo unspecified)
3. COCc1cnc2n1CCN(Cc1cccnc1)C2C (stereo unspecified)
4. Cc1nc(CCCNC(=O)C2CC(=O)N(C3CC3)C2)sc1C (stereo unspecified)
5. COc1cc(C(=O)N(Cc2ccc(F)cc2)C2CC2)cc2c1OCCO2

[A]
1. 0
2. 3.72
3. -50.4
4. -10.8
5. 3.55

----------
System: Trypanosoma cruzi
test_method_notes: Trypanosoma cruzi phosphomannomutase and mannose-1-phosphate guanylyltransferase assay
Format: functional
Parameters: scale not given: direction of the effect not stated beside the values
test_settings: 10 µM
Please go through the items and note down their Percent Effect.
Give bare numbers, in %.

The cases that follow already have their Percent Effect on record.
| compound | experimental_readout | reading_unit | value_measured |
| --- | --- | --- | --- |
| CN(C)S(=O)(=O)N1C[C@H](Oc2cccnc2)[C@H]2OCCC[C@H]21 | Percent Effect | % | -0.69 |
| Cc1nc(C(=O)N2CCCC(c3cccc(-n4ccnc4)n3)C2)co1 (stereo not drawn) | Percent Effect | % | -5.34 |
| O=C(CCCc1ccc(F)cc1)N1C[C@@H](CN2CCOCC2)[C@@H](CO)C1 | Percent Effect | % | -1.57 |

I'm hoping you can list Percent Effect for every compound here, please.
1. COc1cc(C)nc(N2CCN(C(=O)c3ccccc3C)CC2)n1
2. CC(C)c1nccn1CCCNC(=O)c1ccc(N(C)C)nc1
3. Cc1nc(CN2CCCC(NCCc3ccccc3Cl)C2)no1 (stereo not drawn)

[A]
8.4
3.21
2.36

I'm hoping you can list Percent Effect for every compound here, please.
1. Cc1nc2cc(C(=O)N3CCCC(n4cncn4)C3)ccc2n1C (stereo not drawn)
2. Cc1cc(C)n(C2CN(CC(O)c3ccc(F)cc3)C2)n1 (stereo not drawn)
3. CCc1nc2n(n1)CC(NCC(=O)Nc1cc(C)on1)CC2 (stereo not drawn)

[A]
[9.75, 0.936, -7.27]

I'm hoping you can list Percent Effect for every compound here, please.
1. CC(C)N1CC(C(=O)NCCc2csc(-c3ccncc3)n2)CC1=O (stereo not drawn)
2. CN(c1ccc(C(C)(C)C)cc1)S(=O)(=O)c1cc(C(=O)O)cs1
3. O=C(c1cnc(-c2cccs2)s1)N1CCCN2CCCC2C1 (stereo not drawn)
4. Cc1ncsc1CN1C[C@@H](OCC2CC2)[C@H]2OCCC[C@H]21
5. CC1=Nc2c(c(=O)[nH]n2C2CCOCC2)C(c2cccc(Br)c2)S1 (stereo not drawn)
6. Cc1noc(Cl)c1CCC(=O)N1CCC(CC(N)=O)CC1

[A]
2.26
-3.11
-2.36
4.79
1.97
6.63

I'm hoping you can list Percent Effect for every compound here, please.
1. COc1ccc(CCNC(=O)C2CCC(Cn3cnnn3)CC2)cc1 (stereo not drawn)
2. CCS(=O)(=O)Nc1ccc(C(=O)NCCCN2CCCC2)cc1
3. Cc1cnn(CC2CCCN2Cc2ncc(-c3ccccc3)o2)c1 (stereo not drawn)
4. O=c1cc(CN2CCCC2)nc2n1CCCN(Cc1ccsc1)C2
5. Cc1cnn(CCNCC(O)COc2c(C)ccc(C)c2C)c1 (stereo not drawn)
6. CCOC(=O)C1CCCN(c2ccc(-c3nc(C)no3)cn2)C1 (stereo not drawn)

[A]
[-1.38, -3.8, -9.53, -1.57, 6.7, 5.36]
